System: Klebsiella sp.
assay-procedure: MIC on Iso-Sensitest agar, serial dilution
Format: cell-based
assay-conditions: Klebsiella, 20 h
metric-name: MIC

>  <molecule>
Cl.O=C(O)c1cn(C2CC2)c2c(F)c(N3Cc4cccnc4C3)c(F)cc2c1=O [Example 1B]

>  <val>
0.25 µg/mL

$$$$
>  <molecule>
O=C(O)c1cn(C2CC2)c2nc(N3Cc4cccnc4C3)c(F)cc2c1=O [Example 3]

>  <val>
0.5 µg/mL

$$$$
>  <molecule>
O=C(O)c1cn(C2CC2)c2cc(N3Cc4cccnc4C3)c(F)cc2c1=O [Example 5]

>  <val>
1 µg/mL

$$$$
>  <molecule>
O=C(O)c1cn(C2CC2)c2nc(N3Cc4ccncc4C3)c(F)cc2c1=O [Example 6]

>  <val>
0.5 µg/mL

$$$$
>  <molecule>
Cc1c(F)c(N2CC3=C(CN(C)CC3)C2)cc2c1c(=O)c(C(=O)O)cn2-c1ccc(F)cc1F [Example 9]

>  <val>
0.5 µg/mL

$$$$
